Molecular target: Vascular endothelial growth factor receptor 2 (Homo sapiens, UniProt P35968)
Sequence (P35968 whole entry, the tested form may be a part): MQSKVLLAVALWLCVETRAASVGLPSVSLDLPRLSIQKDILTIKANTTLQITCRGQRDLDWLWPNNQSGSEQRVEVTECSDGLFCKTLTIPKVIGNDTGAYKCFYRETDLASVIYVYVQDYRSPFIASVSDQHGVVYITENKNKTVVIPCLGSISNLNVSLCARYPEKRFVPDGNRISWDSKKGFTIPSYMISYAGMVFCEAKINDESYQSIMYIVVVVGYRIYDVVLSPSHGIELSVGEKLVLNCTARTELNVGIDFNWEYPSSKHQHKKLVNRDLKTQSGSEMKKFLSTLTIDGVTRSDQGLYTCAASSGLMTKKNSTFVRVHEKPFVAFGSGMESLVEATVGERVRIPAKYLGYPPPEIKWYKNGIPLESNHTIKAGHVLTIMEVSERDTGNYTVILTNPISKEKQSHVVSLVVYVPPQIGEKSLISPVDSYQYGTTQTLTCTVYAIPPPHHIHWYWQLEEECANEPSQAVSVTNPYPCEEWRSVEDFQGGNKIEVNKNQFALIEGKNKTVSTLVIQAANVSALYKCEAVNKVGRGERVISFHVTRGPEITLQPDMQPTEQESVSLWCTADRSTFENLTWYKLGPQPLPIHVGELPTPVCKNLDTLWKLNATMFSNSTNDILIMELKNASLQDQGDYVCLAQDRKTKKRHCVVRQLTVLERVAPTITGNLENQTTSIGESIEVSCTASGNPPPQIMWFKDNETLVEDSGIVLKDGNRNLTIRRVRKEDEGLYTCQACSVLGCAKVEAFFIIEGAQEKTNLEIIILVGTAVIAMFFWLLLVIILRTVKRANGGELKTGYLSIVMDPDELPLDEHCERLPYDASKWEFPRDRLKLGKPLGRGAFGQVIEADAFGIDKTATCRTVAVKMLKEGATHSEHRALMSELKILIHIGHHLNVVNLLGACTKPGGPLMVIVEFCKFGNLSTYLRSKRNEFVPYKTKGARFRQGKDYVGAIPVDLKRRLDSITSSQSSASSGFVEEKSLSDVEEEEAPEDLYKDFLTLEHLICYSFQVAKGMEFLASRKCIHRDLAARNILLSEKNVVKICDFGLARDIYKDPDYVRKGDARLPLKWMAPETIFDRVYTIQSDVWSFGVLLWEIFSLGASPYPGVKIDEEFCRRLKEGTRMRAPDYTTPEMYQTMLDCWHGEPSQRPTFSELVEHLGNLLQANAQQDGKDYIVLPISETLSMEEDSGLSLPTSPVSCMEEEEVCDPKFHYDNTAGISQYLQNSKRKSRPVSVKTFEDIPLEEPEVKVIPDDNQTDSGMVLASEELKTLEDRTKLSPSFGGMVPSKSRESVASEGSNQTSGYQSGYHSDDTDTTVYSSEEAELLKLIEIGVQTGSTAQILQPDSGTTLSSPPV
Assay: Inhibition of human unphosphorylated N-terminal-His6 tagged VEGFR2 catalytic domain using 5-FAM-EEPLYWSFPAKKK-CONH2 as substrate after 60 mins by mobility shift assay
READOUT_LABEL: IC50 (µM)

# SMI, MEASURED_NUMBER
rows = [
    ("c1ccc2c3c([nH]c2c1)-c1n[nH]cc1CCC3", 0.62),
]

[a] O=C(Nc1cccc(C(F)(F)F)c1)Nc1ccccc1Cl
[b] Cc1oc(-c2ccccc2)nc1COc1cccc(CO)c1
Qu. Which numeric IC50 is bigger, that of a or that of b ? Indicate your choice by writing its label.
Ans. b
